# experiment-description: protein stability index of a GFP-peptide fusion (yeast GPS) (PSI 1-4); higher = more stable; sorted into four equal gates, so the index is relative within each strain
# particulars: ubr1∆
measure-name: protein stability index
I only need the number, thanks.

Enquiry: Fill in: protein stability index of RAFLIEEQKIVKKVVKE [RPL34A] is ___
Return: 3.26

Enquiry: Fill in: protein stability index of NVPWPQNSYADKVTSQA [RPP1] is ___
Return: 2.25

Enquiry: What protein stability index value was documented for this sequence, EQQWITRAQYLAFAKLV [SRP68] ?
Return: 1.5

Enquiry: Quick one: protein stability index of TNLYKLKEERAIEPETF [PUP3] ?
Return: 3.25

Enquiry: Item AAEFRYKYGYDMPCDVL [SCL1] has what recorded protein stability index?
Return: 2.33

Enquiry: Request the reported protein stability index associated with SNMFDNSADVDMDAQGR [YGL100W/SEH1]
Return: 3.29

Enquiry: Could you share which protein stability index value was measured for SLWRRTVYSLSQQAGLD [YDL116W/NUP84] ?
Return: 2.26

Enquiry: Need protein stability index, item PTVKYNRKVRAGRGFTL [RPL13A]
Return: 2.78

Enquiry: Reported protein stability index, sequence KRFNIGADPNYRTYSER [RPR2] : ____
Return: 3.35

Enquiry: Which protein stability index is reported for this sequence? TPESVKPANASHAIRLG [RGR1]
Return: 2.47

Enquiry: Which protein stability index value is on record for AVSKDPLLTKRKDLRDK [DIS3] ?
Return: 3.25

Enquiry: # get_value(readout='protein stability index', item= NDSETHTEDESTKELKF [BRN1] )
Return: 3.19

Enquiry: # query: protein stability index of entry LGQERATDLAGPANNPN [PRP8]
Return: 3.17

Enquiry: Fill in: protein stability index of LYFEIIHGVLKNVDREV [FAS2] is ___
Return: 1.64

====

Please provide measured protein stability index for the entries that follow.
# experiment-description: protein stability index of a GFP-peptide fusion (yeast GPS) (PSI 1-4); higher = more stable; sorted into four equal gates, so the index is relative within each strain
# particulars: doa10∆
Number only, no unit.

Enquiry: Can you share its protein stability index? I mean this sequence: GGLRPFGVSFIYAGYDD [PRE9]
Return: 2.44

Enquiry: Record request: protein stability index value, item GRFLRVPKEGLFYFDSS [BRR2]
Return: 3.18

Enquiry: What does the data say about its protein stability index? Entry: IIAELSFLKVDPDLGLD [YJL039C/NUP192]
Return: 3.35

Enquiry: Entry ESPVDVQSQVDSSSVSE [FAS1] has what protein stability index?
Return: 3.11

Enquiry: Need protein stability index, item TRRKRRQGRSNRRGMLA [SNF5]
Return: 2.51

Enquiry: # query: protein stability index of entry AAVIALGFVLLRDYTTV [RPN2]
Return: 1.59

Enquiry: Need protein stability index, item DTPEGEACGLVKNLALM [RET1]
Return: 2.14

Enquiry: Request the reported protein stability index associated with LAAPKKLNDSQRKTVNS [POP1]
Return: 3.18

Enquiry: Fill in the blank: the reported protein stability index of KCPLLVEVDITLSPNVT [GRR1] is ____.
Return: 1.8

Enquiry: Tell me the measured protein stability index of THTNLERDEQKRAEKKA [SNF2] , please.
Return: 3.35

Enquiry: Look at this sequence and give its reported protein stability index. DQDRGAARHKQHEQGTF [RRI2]
Return: 3.21

Enquiry: What measured protein stability index goes with DLKNTRMKSITSTSQKI [SNF5] ?
Return: 3.23

Enquiry: I'd like to know its protein stability index. The sequence in question is DAFVATAFATEFFVQVL [DLS1]
Return: 2.98

Enquiry: Requested field: protein stability index. Item: IDQDIHGIVFQHPFPLA [SSN2]
Return: 2.13

Enquiry: What does the data say about its protein stability index? Entry: SKMYNTDKKAFLGALKY [PRP8]
Return: 2.52

Enquiry: Which value of protein stability index has been reported for NDFFDNGDNLYGNDEEV [RPN4] in the records?
Return: 1.21

Enquiry: Given DPQQVFDERIKFANQLH [RPN3] , state its recorded protein stability index.
Return: 1.68

Enquiry: protein stability index for TKLIGVLILLHAERDLA [SRP68] ?
Return: 1.28

Enquiry: Fill in: protein stability index of HECRLRDMTYSAPIYVD [RET1] is ___
Return: 2.04

Enquiry: Item LNVQVWHIEETGEWFSS [ITC1] has what recorded protein stability index?
Return: 1.83

Enquiry: For VTNDDKSDDDDHTVDEI [SRB8] , what is its reported protein stability index?
Return: 2.67

Enquiry: If you can, please state the reported protein stability index value of AQKCGWTIPHKKWNDLK [SIR2] .
Return: 3.25

Enquiry: Name the reported protein stability index value associated with the sequence LGKAQNWAKFTATASLG [RPN2]
Return: 2.55

Enquiry: Tell me the measured protein stability index of GIRWELISRLCPNSTGA [RPT1] , please.
Return: 2.04

Enquiry: # get_value(readout='protein stability index', item= LASAIASGLLRAYLSHS [CSN12] )
Return: 1.85

Enquiry: For the sequence LDYVRTPAAATSPIDIR [SNF2] , what protein stability index is on record?
Return: 2.33

Enquiry: State the recorded protein stability index for this entry: LEQFMERNNIGEICKNY [YDL116W/NUP84]
Return: 2.69

Enquiry: Find the recorded protein stability index belonging to GALVDRTQPWSIMPDLY [RPS0A] and report it.
Return: 2.71

Enquiry: Query: protein stability index; subject: KGAATGKGRQSAKAELE [PRE10]
Return: 1.24

Enquiry: Using the record for AIGCIERSDLLPYLSDT [YJR042W/NUP85] , report its protein stability index.
Return: 2.96
